I'd be grateful if you could share measured LogIC50 (best-fit value), A549 for these entries.
# System: A549
# assay: In vitro anti-proliferative MTT assay, A549
# Assay type: cell-based, human
# runParameters: supplement IC50 graph
Form rule: numeric answer, no unit written next to it.

Exam item: LogIC50 (best-fit value), A549 of NNc1nc(Nc2ccccc2)nc2c1cnn2-c1ccccc1 [Compound 10] on A549?
Marked response: 1.195

Exam item: Short answer please: LogIC50 (best-fit value), A549, A549, entry c1ccc(Nc2nc(NC3CCCCC3)c3cnn(-c4ccccc4)c3n2)cc1 [Compound 9]
Marked response: 1.463

Exam item: Checklist item: LogIC50 (best-fit value), A549 tested on A549, entry CCCNc1nc(Nc2ccccc2)nc2c1cnn2-c1ccccc1 [Compound 7b] , value?
Marked response: 1.829

Exam item: What is its LogIC50 (best-fit value), A549 for A549? Entry: CCNc1nc(Nc2ccccc2)nc2c1cnn2-c1ccccc1 [Compound 7a]
Marked response: 1.809

Exam item: Notebook entry, A549 assay: LogIC50 (best-fit value), A549 of CC(=NNc1nc(Nc2ccccc2)nc2c1cnn2-c1ccccc1)c1ccc(Cl)cc1 [Compound 12b] = ?
Marked response: 0.9146

---

# testedOn: EGFR^WT (Homo sapiens, UniProt P00533)
# Construct: purchased Sigma
# Sequence (P00533 25-1210): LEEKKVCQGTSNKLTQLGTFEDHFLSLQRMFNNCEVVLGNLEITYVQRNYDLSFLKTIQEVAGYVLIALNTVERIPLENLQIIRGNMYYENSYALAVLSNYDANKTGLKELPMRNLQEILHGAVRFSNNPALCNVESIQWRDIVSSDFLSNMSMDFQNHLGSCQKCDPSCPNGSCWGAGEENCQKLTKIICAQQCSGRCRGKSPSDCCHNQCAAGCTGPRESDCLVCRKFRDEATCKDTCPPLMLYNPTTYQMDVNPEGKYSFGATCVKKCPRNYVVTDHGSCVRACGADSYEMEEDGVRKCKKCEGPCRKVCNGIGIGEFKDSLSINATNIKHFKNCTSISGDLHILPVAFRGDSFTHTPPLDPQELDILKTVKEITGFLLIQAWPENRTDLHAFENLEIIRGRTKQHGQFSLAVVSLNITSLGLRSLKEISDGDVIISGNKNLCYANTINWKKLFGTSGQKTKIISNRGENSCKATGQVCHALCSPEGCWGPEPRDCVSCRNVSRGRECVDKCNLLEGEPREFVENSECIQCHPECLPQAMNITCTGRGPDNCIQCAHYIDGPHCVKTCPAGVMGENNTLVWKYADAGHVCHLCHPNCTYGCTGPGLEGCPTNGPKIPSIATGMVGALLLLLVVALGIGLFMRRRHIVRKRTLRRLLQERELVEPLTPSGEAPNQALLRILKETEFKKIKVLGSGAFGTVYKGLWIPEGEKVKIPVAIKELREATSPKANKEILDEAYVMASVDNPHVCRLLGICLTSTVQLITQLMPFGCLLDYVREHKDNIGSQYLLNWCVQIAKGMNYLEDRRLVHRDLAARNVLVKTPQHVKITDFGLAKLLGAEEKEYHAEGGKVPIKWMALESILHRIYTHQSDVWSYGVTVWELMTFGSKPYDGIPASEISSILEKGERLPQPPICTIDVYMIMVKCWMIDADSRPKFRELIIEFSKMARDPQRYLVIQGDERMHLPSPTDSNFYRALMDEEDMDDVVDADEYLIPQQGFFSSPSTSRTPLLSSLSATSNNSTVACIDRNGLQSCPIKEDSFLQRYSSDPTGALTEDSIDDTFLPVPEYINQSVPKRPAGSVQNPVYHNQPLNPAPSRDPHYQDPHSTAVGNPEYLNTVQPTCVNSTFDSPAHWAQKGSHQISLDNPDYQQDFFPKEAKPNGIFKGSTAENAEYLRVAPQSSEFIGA
# assay: EGFR^WT kinase inhibitory assay (HTRF)
# Format: biochemical
# runParameters: supplement graph, axis Log (nM); read-out: IC50 (best-fit value of graph), EGFR inhibition
Exercise: state measured IC50 for each of the compounds provided.
Numeric answer only, unit nM assumed.

Exam item: Sample NNc1nc(Nc2ccccc2)nc2c1cnn2-c1ccccc1 — what was its IC50?
Marked response: 23.2

Exam item: Entry under review: c1ccc(Nc2nc(Nc3ccccc3)c3cnn(-c4ccccc4)c3n2)cc1 . Reported IC50?
Marked response: 26

Exam item: What does the record list as IC50 for CC(=NNc1nc(Nc2ccccc2)nc2c1cnn2-c1ccccc1)c1ccc(Cl)cc1 [Compound 12b] ?
Marked response: 15.6

Exam item: So what does the record say about IC50 for CC(=NNc1nc(Nc2ccccc2)nc2c1cnn2-c1ccccc1)c1ccccc1 [Compound 12a] ?
Marked response: 21

---

Would you mind telling me the reported LogIC50 (best-fit value), A549 of each entry?
# Tested on: A549
# assay: In vitro anti-proliferative MTT assay, A549
# Assay type: cell-based, human
# runParameters: supplement IC50 graph
Give your answer as a number; write no unit.

Exam item: Suppose we examine the compound CC(=NNc1nc(Nc2ccccc2)nc2c1cnn2-c1ccccc1)c1ccccc1 [Compound 12a] ; what LogIC50 (best-fit value), A549 value has been reported?
Marked response: 1.137

Exam item: Recorded LogIC50 (best-fit value), A549 of Clc1ccc(C=NNc2nc(Nc3ccccc3)nc3c2cnn3-c2ccccc2)cc1 [Compound 11b] , please.
Marked response: 1.879

Exam item: Reported LogIC50 (best-fit value), A549, compound C#Cc1cccc(Nc2ncnc3cc(OCCOC)c(OCCOC)cc23)c1 [Erlotinib, reference compound] : ____
Marked response: 0.8309

Exam item: # query: LogIC50 (best-fit value), A549 of entry CCNC(=S)NNc1nc(Nc2ccccc2)nc2c1cnn2-c1ccccc1 [Compound 13a]
Marked response: 1.635

Exam item: Fill blank: measured LogIC50 (best-fit value), A549 of the compound CC(=NNc1nc(Nc2ccccc2)nc2c1cnn2-c1ccccc1)c1ccc(C)cc1 [Compound 12c] is ____.
Marked response: 1.459

Exam item: Please report the recorded LogIC50 (best-fit value), A549 for c1ccc(Nc2nc(Nc3ccccc3)c3cnn(-c4ccccc4)c3n2)cc1 .
Marked response: 1.224

Exam item: Which measured LogIC50 (best-fit value), A549 value corresponds to CCCNC(=S)NNc1nc(Nc2ccccc2)nc2c1cnn2-c1ccccc1 [Compound 13b] ?
Marked response: 1.186

Exam item: Look up LogIC50 (best-fit value), A549 for this compound: COc1ccc(C=NNc2nc(Nc3ccccc3)nc3c2cnn3-c2ccccc2)cc1 [Compound 11a]
Marked response: 1.678

---

# testedOn: EGFR^WT (Homo sapiens)
# Construct: purchased Sigma
# assay: EGFR^WT kinase inhibitory assay (HTRF)
# Assay type: biochemical
# runParameters: supplement graph, axis Log (nM)
Provide the reported LogIC50 (best-fit value), EGFR inhibition of each item.
Could you keep your reply to the number by itself?

Exam item: Bench note: what LogIC50 (best-fit value), EGFR inhibition did c1ccc(Nc2nc(Nc3ccccc3)c3cnn(-c4ccccc4)c3n2)cc1 show?
Marked response: 1.415

Exam item: Record request: LogIC50 (best-fit value), EGFR inhibition value, item NNc1nc(Nc2ccccc2)nc2c1cnn2-c1ccccc1
Marked response: 1.366

Exam item: What value of measured LogIC50 (best-fit value), EGFR inhibition is listed for CC(=NNc1nc(Nc2ccccc2)nc2c1cnn2-c1ccccc1)c1ccccc1 [Compound 12a] ?
Marked response: 1.321

Exam item: Could you share which LogIC50 (best-fit value), EGFR inhibition value was measured for CC(=NNc1nc(Nc2ccccc2)nc2c1cnn2-c1ccccc1)c1ccc(Cl)cc1 [Compound 12b] ?
Marked response: 1.193

---

For each of the compounds below, state its LogIC50 (best-fit value), HCT-116.
# Test system: HCT-116
# assay: In vitro anti-proliferative MTT assay, HCT-116
# Type: cell-based, human
# runParameters: supplement IC50 graph
Just the number.

Exam item: Given the entry Clc1ccc(C=NNc2nc(Nc3ccccc3)nc3c2cnn3-c2ccccc2)cc1 [Compound 11b] , report its measured LogIC50 (best-fit value), HCT-116.
Marked response: 1.876

Exam item: Recorded LogIC50 (best-fit value), HCT-116 of CC(=NNc1nc(Nc2ccccc2)nc2c1cnn2-c1ccccc1)c1ccc(C)cc1 [Compound 12c] , please.
Marked response: 1.458

Exam item: What does the record list as LogIC50 (best-fit value), HCT-116 for CC(=NNc1nc(Nc2ccccc2)nc2c1cnn2-c1ccccc1)c1ccc(Cl)cc1 [Compound 12b] ?
Marked response: 1.291

Exam item: Any idea what its LogIC50 (best-fit value), HCT-116 is? The compound is CCNc1nc(Nc2ccccc2)nc2c1cnn2-c1ccccc1
Marked response: 1.472

Exam item: Requested read-out: LogIC50 (best-fit value), HCT-116. Entry: CCCNC(=S)NNc1nc(Nc2ccccc2)nc2c1cnn2-c1ccccc1 [Compound 13b]
Marked response: 1.562

Exam item: Recorded LogIC50 (best-fit value), HCT-116 of NNc1nc(Nc2ccccc2)nc2c1cnn2-c1ccccc1 , please.
Marked response: 1.274

Exam item: Report LogIC50 (best-fit value), HCT-116 for COc1ccc(C=NNc2nc(Nc3ccccc3)nc3c2cnn3-c2ccccc2)cc1 [Compound 11a] please.
Marked response: 1.664

Exam item: Bench note: what LogIC50 (best-fit value), HCT-116 did c1ccc(Nc2nc(Nc3ccccc3)c3cnn(-c4ccccc4)c3n2)cc1 show?
Marked response: 1.383

Exam item: Could you share which LogIC50 (best-fit value), HCT-116 value was measured for C#Cc1cccc(Nc2ncnc3cc(OCCOC)c(OCCOC)cc23)c1 [Erlotinib, reference compound] ?
Marked response: 1.284

Exam item: Data request, read-out LogIC50 (best-fit value), HCT-116, for CC(=NNc1nc(Nc2ccccc2)nc2c1cnn2-c1ccccc1)c1ccccc1 [Compound 12a]
Marked response: 1.368

Exam item: Reported LogIC50 (best-fit value), HCT-116, compound CCNC(=S)NNc1nc(Nc2ccccc2)nc2c1cnn2-c1ccccc1 [Compound 13a] : ____
Marked response: 1.432

Exam item: Please report the recorded LogIC50 (best-fit value), HCT-116 for c1ccc(Nc2nc(NC3CCCCC3)c3cnn(-c4ccccc4)c3n2)cc1 .
Marked response: 1.595

Exam item: Entry CCCNc1nc(Nc2ccccc2)nc2c1cnn2-c1ccccc1 : reported LogIC50 (best-fit value), HCT-116 = ?
Marked response: 1.498

---

# Tested on: A549
# assay: In vitro anti-proliferative MTT assay, A549
# Type: cell-based, human
# runParameters: Homo sapiens, A549; supplement IC50 graph, unit inferred; read-out: IC50 (best-fit value of graph), A549
measuredParameter: IC50

Exam item: Checklist item: IC50 tested on A549, entry CC(=NNc1nc(Nc2ccccc2)nc2c1cnn2-c1ccccc1)c1ccc(Cl)cc1 [Compound 12b] , value?
Marked response: 8.22 µM

---

# testedOn: EGFR^T790M (Homo sapiens, UniProt P00533, T790M)
# Construct: purchased Sigma
# Sequence (P00533 25-1210 T790M): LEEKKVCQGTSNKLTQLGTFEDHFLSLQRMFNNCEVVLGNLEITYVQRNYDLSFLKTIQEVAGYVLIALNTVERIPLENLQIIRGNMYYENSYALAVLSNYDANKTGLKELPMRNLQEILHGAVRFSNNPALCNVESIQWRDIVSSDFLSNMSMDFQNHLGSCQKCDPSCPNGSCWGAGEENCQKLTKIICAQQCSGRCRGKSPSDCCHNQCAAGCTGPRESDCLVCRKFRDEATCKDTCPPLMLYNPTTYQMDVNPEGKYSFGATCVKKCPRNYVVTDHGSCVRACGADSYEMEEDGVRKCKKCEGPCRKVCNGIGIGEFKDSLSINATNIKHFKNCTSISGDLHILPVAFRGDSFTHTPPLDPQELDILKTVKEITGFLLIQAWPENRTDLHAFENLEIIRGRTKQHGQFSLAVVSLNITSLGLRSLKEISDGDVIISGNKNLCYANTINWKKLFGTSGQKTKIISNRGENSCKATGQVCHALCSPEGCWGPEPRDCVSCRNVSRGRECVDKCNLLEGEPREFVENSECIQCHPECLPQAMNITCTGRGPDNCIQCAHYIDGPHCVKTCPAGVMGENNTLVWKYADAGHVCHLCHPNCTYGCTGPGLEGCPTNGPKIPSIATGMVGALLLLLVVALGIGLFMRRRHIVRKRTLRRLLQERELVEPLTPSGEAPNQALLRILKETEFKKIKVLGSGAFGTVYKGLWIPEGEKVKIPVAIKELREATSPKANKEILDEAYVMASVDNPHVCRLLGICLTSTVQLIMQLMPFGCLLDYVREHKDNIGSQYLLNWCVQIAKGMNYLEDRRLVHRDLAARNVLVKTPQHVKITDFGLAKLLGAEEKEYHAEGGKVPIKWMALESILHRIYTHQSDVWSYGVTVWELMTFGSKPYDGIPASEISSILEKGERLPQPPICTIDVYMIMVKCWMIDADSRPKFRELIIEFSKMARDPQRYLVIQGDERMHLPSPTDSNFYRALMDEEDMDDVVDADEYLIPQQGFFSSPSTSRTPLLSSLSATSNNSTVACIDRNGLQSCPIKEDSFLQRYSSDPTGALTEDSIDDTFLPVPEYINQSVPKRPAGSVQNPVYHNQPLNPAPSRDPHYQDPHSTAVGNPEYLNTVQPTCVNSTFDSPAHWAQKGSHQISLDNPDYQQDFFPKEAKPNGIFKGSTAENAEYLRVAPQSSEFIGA
# assay: EGFR^T790M kinase inhibitory assay (HTRF)
# Assay type: biochemical
# runParameters: HTRF, mean of three experiments; read-out: EGFR^T790M IC50
# Protocol: In vitro EGFR inhibitory activity was assessed using a Homogeneous time-resolved fluorescence (HTRF) assay[56] as described in Supplementary data. 4.1.1. EGFRWT and EGFRT790M kinase inhibitory assay […] against four cancer cell lines were further examined for their inhibitory activities against both […] Homogeneous time resolved fluorescence (HTRF) assay was applied in this test. […]
measuredParameter: IC50
Please don't drop the unit; write it after the number.

Exam item: # query: IC50 of entry CC(=NNc1nc(Nc2ccccc2)nc2c1cnn2-c1ccccc1)c1ccc(Cl)cc1 [Compound 12b]
Marked response: 236 nM
